assayed.target: alkaline phosphatase
test.summary: Enzyme inhibition assay on microfluidic disc (alkaline phosphatase / PNPP, reflectance at 430 nm)
measurement.parameters: end-point measurement 2 minutes after fluid pumped into detection chambers; dose-response fitted to Langmuir isotherm; substrate PNPP 0.5 mM; alkaline phosphatase 1 mg/mL; 0.1M glycine, 0.5 mM MgCl2; read-out: inhibition constant
pKi: −log10 of the molar value.
test.readout: pKi

| compound | assayed.target | value |
| --- | --- | --- |
| Cn1c(=O)c2[nH]cnc2n(C)c1=O [theophylline] | alkaline phosphatase | 2.01 |
